tested on: JAK2(JH1domain-catalytic); details: concentration: 1 μM, replicates: in singlicate; n = 1;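 note: KINOMEscan kinase panel screen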
Lab note: compare %Inh against 30%. Equal or greater, write y. Smaller, write n.

compound | group_label
Nc1ncc(-c2cn[nH]c2)c2scc(-c3ccc4c(c3)CCN4C(=O)Cc3ccccc3)c12 [GSK2593067] | y
O=C(Nc1n[nH]c2nc(-c3cccc(O)c3)ccc12)C1CC1 [SB-711805] | n
Nc1cccc(-c2ccc3c(N)n[nH]c3c2)c1 [GSK2193613] | n
CS(=O)(=O)c1cccc(CNc2nc(Nc3ccc4c(c3)CCC(=O)N4)ncc2C(F)(F)F)c1 | y

Hello, I need to know if COC(=O)Nc1nc2cc(Oc3ccc(NC(=O)Nc4cccc(SC)c4)cc3)ccc2[nH]1.Cl [GW697999] has measured %Inh not below 30%. Thanks!
n

Hello, I need to know if Cc1ccc(C)c(NC(=O)Nc2ccc(C)c(-c3ccc(C(=O)Nc4ccncc4)cc3)c2)c1 [GSK1398473] has measured %Inh not below 30%. Thanks!
n

Hello, I need to know if CN1CCN(Cc2ccc(NC(=O)Nc3ccc(N(C)c4ccnc(Nc5ccc(CS(C)(=O)=O)cc5)n4)cc3)cc2)CC1.Cl [GW827654] has measured %Inh not below 30%. Thanks!
y

Hello, I need to know if COc1ccc(C2=C(Nc3cccc(O)c3)C(=O)NC2=O)cc1 [SB-390766] has measured %Inh not below 30%. Thanks!
n

Taken from paper PMC5540273.
